EXPERIMENTAL_TARGET: Tyrosine-protein phosphatase non-receptor type 1 (Homo sapiens) (UniProt P18031)
Sequence (P18031 whole entry): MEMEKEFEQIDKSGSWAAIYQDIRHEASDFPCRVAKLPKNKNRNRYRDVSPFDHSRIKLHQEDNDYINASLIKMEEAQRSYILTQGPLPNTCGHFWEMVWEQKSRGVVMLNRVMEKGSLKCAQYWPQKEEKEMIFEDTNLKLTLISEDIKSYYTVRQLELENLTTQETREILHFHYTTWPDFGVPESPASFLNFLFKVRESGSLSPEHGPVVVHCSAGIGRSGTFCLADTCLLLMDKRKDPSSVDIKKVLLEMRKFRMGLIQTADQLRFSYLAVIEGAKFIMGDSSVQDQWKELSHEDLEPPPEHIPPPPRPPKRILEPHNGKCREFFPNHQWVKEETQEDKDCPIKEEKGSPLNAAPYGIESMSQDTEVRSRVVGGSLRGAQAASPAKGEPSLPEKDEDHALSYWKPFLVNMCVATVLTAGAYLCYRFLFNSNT
PROTOCOL_SUMMARY: Inhibition of human recombinant GST-tagged PTP1B using para-nitrophenyl phosphate as substrate assessed as release of para-nitrophenol at 10 uM after 10 mins by spectrophotometric analysis
Calls of active or inactive are those of the source. The rule behind the calls is not given here.
MEASUREMENT_LABEL: inhibition

CCO[C@@H]1[C@@H]2[C@H](CC[C@@]3(C)[C@H](O)[C@H]4[C@@H](OC(=O)c5ccccc5)[C@@H](C)C[C@]4(O)C(=O)[C@@]13C)C2(C)C = inactive
C[C@H]1C[C@]2(O)C(=O)[C@@]3(C)[C@@H]4[C@@H](O)C(C)(C)[C@H]4CC[C@@]3(C)[C@H](O)[C@H]2[C@H]1OC(=O)c1ccccc1 = inactive
C[C@H]1C[C@]2(O)C(=O)[C@@]3(C)[C@H](O)[C@@H]4[C@H](CC[C@@]3(C)[C@H](O)[C@H]2[C@H]1OC(=O)c1ccccc1)C4(C)C = inactive
C[C@H]1C[C@]2(O)C(=O)[C@@]3(C)[C@@H]4O[C@H]4C(C)(C)[C@@H](O)CC[C@@]3(C)[C@H](O)[C@H]2[C@H]1OC(=O)/C=C/c1ccccc1 = inactive
CO[C@@H]1[C@@H]2[C@H](CC[C@@]3(C)[C@H](O)[C@H]4[C@@H](O)[C@@H](C)C[C@]4(OC(=O)/C=C/c4ccccc4)C(=O)[C@@]23C)C1(C)C = inactive
CCO[C@@H]1[C@@H]2[C@H](CC[C@@]3(C)[C@H](O)[C@H]4[C@@H](OC(=O)/C=C/c5ccccc5)[C@@H](C)C[C@]4(O)C(=O)[C@@]13C)C2(C)C = inactive

inhibition reading for `C[C@H]1C[C@]2(O)C(=O)[C@@]3(C)[C@@H]4[C@@H](O)C(C)(C)[C@H]4CC[C@@]3(C)[C@H](O)[C@H]2[C@H]1OC(=O)/C=C/c1ccccc1` : inactive

// field: inhibition; key: `CO[C@@H]1[C@@H]2[C@H](CC[C@@]3(C)[C@H](O)[C@H]4[C@@H](O)[C@@H](C)C[C@]4(OC(=O)c4ccccc4)C(=O)[C@@]13C)C2(C)C` ; value = inactive
